# Tested on: human APOE RNA
# Measurement notes: Dose-dependent inhibition of human APOE RNA in HepG2 cells, electroporation, 50,000 cells per well, RT-PCR normalized to GAPDH (Example 4, Tables 8-10)
# Type: cell-based
# Experimental parameters: 512 nM; HepG2, electroporation, 24-hour treatment
Strand notation (5' to 3'): a small letter for the sugar, then the base; units joined by * are phosphorothioate-linked, units joined directly phosphodiester-linked; [ ] holds rarer units or linkages, { } end groups; capitals alone tell only the bases. [ms] = mesyl phosphoramidate linkage; k = constrained ethyl (cEt); [5mC] = 5-methylcytosine; d = 2'-deoxy (DNA)
Measure name: APOE RNA (% UTC)
Answers are plain numbers, in % UTC.

// solved cases for APOE RNA (% UTC) follow
Substance	Units	APOE RNA (% UTC)
1746795 (k[5mC]*kT*dT[ms]kG*dG[ms]dT[ms]dG[ms]dA[ms]dA[ms]dT*d[5mC]*dT*dT*dT*dA[ms]dT*kT*dA[ms]kA*kA; antisense) [Compound 1746795]	% UTC	53
1746785 (k[5mC]*kT*dT[ms]kG*dG[ms]dT[ms]dG[ms]dA[ms]dA[ms]dT*d[5mC]*dT*dT*dT*dA[ms]dT*kT*kA*dA[ms]kA; antisense) [Compound 1746785]	% UTC	53
1746812 (k[5mC]*dT[ms]dT[ms]dG[ms]kG*kT*dG[ms]dA[ms]dA[ms]dT*d[5mC]*dT*dT*dT*dA[ms]dT*dT[ms]kA*kA*kA; antisense) [Compound 1746812]	% UTC	76
1747051 (k[5mC]*kT*dT[ms]kG*dG[ms]kT*dG[ms]dA[ms]dA[ms]dT*d[5mC]*dT*dT*dT*dA[ms]dT*kT*dA[ms]dA[ms]kA; antisense) [Compound 1747051]	% UTC	67

Here's the next entry for you.
[Q] # input substance: 1746793 (k[5mC]*dT[ms]dT[ms]dG[ms]kG*kT*dG[ms]dA[ms]dA[ms]dT*d[5mC]*dT*dT*dT*dA[ms]dT*kT*kA*dA[ms]kA; antisense) [Compound 1746793] ; wanted: its APOE RNA (% UTC)
[A] 54

====

# System: human APOE RNA
# Measurement notes: Dose-dependent inhibition of human APOE RNA in HepG2 cells, electroporation, 24 hours (Example 6)
# Type: cell-based
# Experimental parameters: 3,200 nM
Strand notation (5' to 3'): a small letter for the sugar, then the base; units joined by * are phosphorothioate-linked, units joined directly phosphodiester-linked; [ ] holds rarer units or linkages, { } end groups; capitals alone tell only the bases. [ms] = mesyl phosphoramidate linkage; e = 2'-O-(2-methoxyethyl) (MOE); k = constrained ethyl (cEt); [5mC] = 5-methylcytosine; d = 2'-deoxy (DNA)
Measure name: APOE RNA (% UTC)

Look over these answered cases.
Substance	Reported
1736536 (e[5mC]*eT*eT*eG*kGkT*dG[ms]dA[ms]dA[ms]dT*d[5mC]*dT*dT*dT*dA[ms]dT*eT*eA*eA*eA; antisense) [Compound 1736536]	25 % UTC
1736528 (e[5mC]*eT*eT*eG*eG*eTdG[ms]dA[ms]dA[ms]dT*d[5mC]*dT*dT*dT*dA[ms]dT*kT*eA*eA*eA; antisense) [Compound 1736528]	39 % UTC
1736533 (e[5mC]*eT*eT*eG*eGeT*dG[ms]dA[ms]dA[ms]dT*d[5mC]*dT*dT*dT*dA[ms]dT*kT*eA*eA*eA; antisense) [Compound 1736533]	28 % UTC
1736522: 6-10-4 MOE gapmer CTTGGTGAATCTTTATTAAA, linkages sooosszzssssssssoss (e[5mC]*eTeTeGeG*eT*dG[ms]dA[ms]dA*dT*d[5mC]*dT*dT*dT*dA*dT*eTeA*eA*eA) [compound 1736522]	41 % UTC
1736529 (e[5mC]*eT*eT*eG*eG*eTdG[ms]dA[ms]dA[ms]dT*d[5mC]*dT*dT*dT*dA[ms]dT*kT*kA*eA*eA; antisense) [Compound 1736529]	29 % UTC
1736520: 6-10-4 MOE gapmer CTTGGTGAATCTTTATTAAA, linkages sossoszzzssssssssss (e[5mC]*eTeT*eG*eGeT*dG[ms]dA[ms]dA[ms]dT*d[5mC]*dT*dT*dT*dA*dT*eT*eA*eA*eA) [compound 1736520]	11 % UTC

For each of the substances below, note its APOE RNA (% UTC).
1. 1693102: 6-10-4 MOE gapmer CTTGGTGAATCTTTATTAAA, linkages ssssoszzzssssszssss (e[5mC]*eT*eT*eG*eGeT*dG[ms]dA[ms]dA[ms]dT*d[5mC]*dT*dT*dT*dA[ms]dT*eT*eA*eA*eA) [compound 1693102]
2. 1736535 (e[5mC]*eT*eT*eG*eGkT*dG[ms]dA[ms]dA[ms]dT*d[5mC]*dT*dT*dT*dA[ms]dT*eT*eA*eA*eA; antisense) [Compound 1736535]

[A]
32 % UTC
24 % UTC

Please give APOE RNA (% UTC) for each item listed below.
1. 1736513 (e[5mC]*eTeT*eG*eG*kT*dG[ms]dA[ms]dA[ms]dT*d[5mC]*dT*dT*dT*dA[ms]dT*eT*eA*eA*eA; antisense) [Compound 1736513]
2. 1736526: 6-10-4 MOE gapmer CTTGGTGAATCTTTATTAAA, linkages ssoooszzsssssssssss (e[5mC]*eT*eTeGeGeT*dG[ms]dA[ms]dA*dT*d[5mC]*dT*dT*dT*dA*dT*eT*eA*eA*eA) [compound 1736526]

[A]
33 % UTC
28 % UTC

====

For each of the substances below, state its APOE RNA (% UTC).
# System: human APOE RNA
# Measurement notes: Dose-dependent inhibition of human APOE RNA in HepG2 cells, electroporation, 50,000 cells per well, RT-PCR normalized to GAPDH (Example 4, Tables 8-10)
# Assay type: cell-based
# Experimental parameters: 3,200 nM; HepG2, electroporation, 24-hour treatment
Strand notation (5' to 3'): a small letter for the sugar, then the base; units joined by * are phosphorothioate-linked, units joined directly phosphodiester-linked; [ ] holds rarer units or linkages, { } end groups; capitals alone tell only the bases. [ms] = mesyl phosphoramidate linkage; k = constrained ethyl (cEt); [5mC] = 5-methylcytosine; d = 2'-deoxy (DNA)
Returns: string containing the number followed by the unit.

Substance	APOE RNA (% UTC)
1746802 (k[5mC]*dT[ms]dT[ms]dG[ms]kG*kT*dG[ms]dA[ms]dA[ms]dT*d[5mC]*dT*dT*dT*dA[ms]dT*kT*dA[ms]kA*kA; antisense) [Compound 1746802]	47 % UTC
1746792 (k[5mC]*dT[ms]dT[ms]kG*dG[ms]kT*dG[ms]dA[ms]dA[ms]dT*d[5mC]*dT*dT*dT*dA[ms]dT*kT*kA*dA[ms]kA; antisense) [Compound 1746792]	12 % UTC
1746811 (k[5mC]*dT[ms]dT[ms]kG*kG*dT[ms]dG[ms]dA[ms]dA[ms]dT*d[5mC]*dT*dT*dT*dA[ms]dT*dT[ms]kA*kA*kA; antisense) [Compound 1746811]	23 % UTC
1746801 (k[5mC]*dT[ms]dT[ms]kG*kG*dT[ms]dG[ms]dA[ms]dA[ms]dT*d[5mC]*dT*dT*dT*dA[ms]dT*kT*dA[ms]kA*kA; antisense) [Compound 1746801]	11 % UTC
1746803 (k[5mC]*dT[ms]dT[ms]kG*dG[ms]kT*dG[ms]dA[ms]dA[ms]dT*d[5mC]*dT*dT*dT*dA[ms]dT*kT*dA[ms]kA*kA; antisense) [Compound 1746803]	29 % UTC

Could I get APOE RNA (% UTC) for every one of these entries?
1. 1753989 (k[5mC]*dT[ms]kT*dG[ms]kG*dT*dG[ms]dA[ms]dA[ms]dT*d[5mC]*dT*dT*dT*dA[ms]kT*dT[ms]kA*dA[ms]kA; antisense) [Compound 1753989]
2. 1746807 (k[5mC]*kT*dT[ms]dG[ms]dG[ms]kT*dG[ms]dA[ms]dA[ms]dT*d[5mC]*dT*dT*dT*dA[ms]dT*dT[ms]kA*kA*kA; antisense) [Compound 1746807]
3. 1746793 (k[5mC]*dT[ms]dT[ms]dG[ms]kG*kT*dG[ms]dA[ms]dA[ms]dT*d[5mC]*dT*dT*dT*dA[ms]dT*kT*kA*dA[ms]kA; antisense) [Compound 1746793]
4. 1747052 (k[5mC]*dT[ms]kT*kG*dG[ms]kT*dG[ms]dA[ms]dA[ms]dT*d[5mC]*dT*dT*dT*dA[ms]dT*kT*dA[ms]dA[ms]kA; antisense) [Compound 1747052]
5. 1746794 (k[5mC]*kT*kT*dG[ms]dG[ms]dT[ms]dG[ms]dA[ms]dA[ms]dT*d[5mC]*dT*dT*dT*dA[ms]dT*kT*dA[ms]kA*kA; antisense) [Compound 1746794]

[A]
33 % UTC
29 % UTC
31 % UTC
46 % UTC
16 % UTC
